Target: CaMN composed of amino acids 1–75 (UniProt P0DP23 2-76)
Assay: ITC
QUANTITY MEASURED: Kd (nM)
Numbers only, in nM.

Asked: Give the value of Kd reported for the following: Ac-KKFNARRKLKGAILTTMLATRN-NH2 [CaMKII(291–312) peptide]
Given back: 710

Cited source: paper PMC2665295
